Reported pIC50 is given for each of the following compounds.
molecular target: His-GST-TVMV-hRIPK1(1-324) (Homo sapiens); construct: The coding region of human RIPK1(1-324) flanked by NdeI site at 5′ end; made in house; host or cells: Spodoptera frugiperda Sf9 insect cells (baculovirus, Bac-to-Bac); assay: biochemical; format: binding; conditions: HTRF probe displacement, 1 h at rt; read-out: RIPK1 IC50
Sequence (Q13546 1-324): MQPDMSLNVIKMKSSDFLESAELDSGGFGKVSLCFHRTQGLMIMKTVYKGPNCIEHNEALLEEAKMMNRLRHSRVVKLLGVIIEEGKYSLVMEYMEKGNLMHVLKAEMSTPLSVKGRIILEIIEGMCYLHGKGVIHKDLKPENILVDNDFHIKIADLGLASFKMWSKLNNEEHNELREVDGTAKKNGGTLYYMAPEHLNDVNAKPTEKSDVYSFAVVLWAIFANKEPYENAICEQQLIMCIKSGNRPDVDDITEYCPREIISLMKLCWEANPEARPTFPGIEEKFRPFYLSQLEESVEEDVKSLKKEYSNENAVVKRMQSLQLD
pIC50: −log10 of the molar value.
MEASUREMENT_KIND: pIC50

- COMPOUND: "Cc1c(F)cc(-c2ccn3nc(N)nc3c2)cc1C(=O)NCC(F)(F)C(O)c1ccc(F)cc1 (single isomer, unassigned) [Example 232]"
  TESTED_ON: "His-GST-TVMV-hRIPK1(1-324) (Homo sapiens)"
  MEASUREMENT_KIND: "pIC50"
  NUMERIC_VALUE: 8.35
- COMPOUND: "Cc1cc(F)c(-c2ccn3nc(N)nc3c2)cc1C(=O)NCC(F)(F)C(O)c1ccc(F)cc1 (single isomer, unassigned) [Example 97]"
  TESTED_ON: "His-GST-TVMV-hRIPK1(1-324) (Homo sapiens)"
  MEASUREMENT_KIND: "pIC50"
  NUMERIC_VALUE: 8.89
- COMPOUND: "[2H]C([2H])([2H])c1ccc(-c2ccn3nc(N)nc3c2)c(F)c1C(=O)NCC(F)(F)C(C)(O)c1ccc(F)cc1 (single isomer, unassigned) [Example 242]"
  TESTED_ON: "His-GST-TVMV-hRIPK1(1-324) (Homo sapiens)"
  MEASUREMENT_KIND: "pIC50"
  NUMERIC_VALUE: 8.04
- COMPOUND: "Cc1ccc(-c2ccn3nc(N)nc3c2)c(F)c1C(=O)NC(C)CC(O)c1ccc(F)cc1 (single isomer, unassigned) [Example 37]"
  TESTED_ON: "His-GST-TVMV-hRIPK1(1-324) (Homo sapiens)"
  MEASUREMENT_KIND: "pIC50"
  NUMERIC_VALUE: 7.68
- COMPOUND: "Cc1ccc(-c2ccn3nc(N)nc3c2)c(F)c1C(=O)NCC(F)(F)C(O)c1c(F)cc(F)cc1F (single isomer, unassigned) [Example 283]"
  TESTED_ON: "His-GST-TVMV-hRIPK1(1-324) (Homo sapiens)"
  MEASUREMENT_KIND: "pIC50"
  NUMERIC_VALUE: 9.30
- COMPOUND: "Nc1nc2cc(-c3ccc(Cl)c(C(=O)NCC(F)C(O)c4ccc(Cl)cc4)c3F)ccn2n1 (stereo not drawn) [Example 129]"
  TESTED_ON: "His-GST-TVMV-hRIPK1(1-324) (Homo sapiens)"
  MEASUREMENT_KIND: "pIC50"
  NUMERIC_VALUE: 8.46

Attribution: patent US11767322B2
